src = the supplement of paper PMC10567573

Quick reference for protein stability index among some variants
B1: ZER1 (parent)
chain: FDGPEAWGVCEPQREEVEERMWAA

Variants of: B1
Experiment: protein stability index of a GFP-peptide fusion (GPS, HEK-293T) (PSI 1-6); higher = more stable;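 further: lentivirally expressed fusions sorted by FACS into six bins by GFP to DsRed ratio, PSI derived from sequencing read proportions per bin multiplied by bin number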
Conditions: c terminus: a fixed tail appended
Please reply with the number alone, leaving off any unit.

Known results for variants:
FDGFEAWGVCEPQREEVEERMWAA [P4F]	1.91
FDGPEAWGVCEPQREESEERMWAA [V17S]	2.64
FDGPECWGVCEPQREEVEERMWAA [A6C]	2.57
FQGPEAWGVCEPQREEVEERMWAA [D2Q]	2.69

Prompt: Fill blank: measured protein stability index of the variant FDGPEADGVCEPQREEVEERMWAA [W7D] is ____.
Response: 5.1

Prompt: Fill blank: measured protein stability index of the variant FDGPEAWGVCYPQREEVEERMWAA [E11Y] is ____.
Response: 1.87

Prompt: Fill blank: measured protein stability index of the variant FDGPEAWGVCEPQRLEVEERMWAA [E15L] is ____.
Response: 2.2

Prompt: Fill blank: measured protein stability index of the variant FDGPEAWGVCEPQREETEERMWAA [V17T] is ____.
Response: 2.47

Prompt: Fill blank: measured protein stability index of the variant FDGPEAWGVCEPQPEEVEERMWAA [R14P] is ____.
Response: 3.26

Prompt: Fill blank: measured protein stability index of the variant FDGPEAWGVCEPQRENVEERMWAA [E16N] is ____.
Response: 2.37

Prompt: Fill blank: measured protein stability index of the variant FDTPEAWGVCEPQREEVEERMWAA [G3T] is ____.
Response: 1.98

Prompt: Fill blank: measured protein stability index of the variant FDGPEAWGKCEPQREEVEERMWAA [V9K] is ____.
Response: 2.59

Prompt: Fill blank: measured protein stability index of the variant SDGPEAWGVCEPQREEVEERMWAA [F1S] is ____.
Response: 4.77

Prompt: Fill blank: measured protein stability index of the variant FDGPEAWGVCEPQRGEVEERMWAA [E15G] is ____.
Response: 2.19
